tested_system: P70S6K (T412E mutant) (Homo sapiens (Human), UniProt P23443, T412E)
Sequence (P23443 whole entry T412E): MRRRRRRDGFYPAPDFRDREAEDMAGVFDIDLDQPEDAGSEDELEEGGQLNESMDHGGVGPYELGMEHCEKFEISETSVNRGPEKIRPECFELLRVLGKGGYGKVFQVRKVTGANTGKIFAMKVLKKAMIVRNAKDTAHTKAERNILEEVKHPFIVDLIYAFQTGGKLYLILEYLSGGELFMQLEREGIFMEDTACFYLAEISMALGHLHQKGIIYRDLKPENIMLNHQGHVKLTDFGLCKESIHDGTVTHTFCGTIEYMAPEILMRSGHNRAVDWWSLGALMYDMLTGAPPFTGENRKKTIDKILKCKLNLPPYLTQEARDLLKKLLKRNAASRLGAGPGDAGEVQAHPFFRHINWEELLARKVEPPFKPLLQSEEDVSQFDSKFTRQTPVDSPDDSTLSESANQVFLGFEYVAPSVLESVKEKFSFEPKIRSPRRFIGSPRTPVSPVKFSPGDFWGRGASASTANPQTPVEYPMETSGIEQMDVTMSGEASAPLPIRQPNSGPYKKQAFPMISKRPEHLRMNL
test_summary: P70S6K enzyme assay
condition_description: 24 μM ATP
pIC50: −log10 of the molar value.
parameter_measured: pIC50

Examples with answers:
Data request: Can you share its pIC50? I mean this molecule: CCc1c(N)ncnc1N1CC[C@@H](c2nc(-c3ccc(F)c(C(F)(F)F)c3)cn2CCN2CCC2)[C@@H](F)C1 (racemic)
Data returned: 8.00 to 9.00

Data request: Can you share its pIC50? I mean this molecule: N#Cc1c(N)ncnc1N1CC[C@@H](c2nc(-c3ccc(F)c(C(F)(F)F)c3)cn2CCN2CCC2)[C@@H](F)C1 (racemic) [Compound 1]
Data returned: > 9.00

Data request: Can you share its pIC50? I mean this molecule: N#Cc1c(N)ncnc1N1CC[C@@H](c2nc(-c3ccc(F)c(C(F)(F)F)c3)cn2CCN2CCC2)[C@@H](F)C1 (single isomer, unassigned) [Compound 40]
Data returned: 8.00 to 9.00

Data request: Can you share its pIC50? I mean this molecule: N#Cc1c(N)ncnc1N1CC[C@H](c2nc(-c3ccc(F)c(C(F)(F)F)c3)cn2CCN2CCC2)[C@@H](F)C1 (racemic)
Data returned: 8.00 to 9.00

Data request: Can you share its pIC50? I mean this molecule: Cc1cc(-c2cn(CCN3CCC3)c(C3CCN(c4ncnc(N)c4C(N)=O)CC3(F)F)n2)ccc1F (stereo not drawn)
Data returned: < 8.00

Data request: Can you share its pIC50? I mean this molecule: Cc1cc(-c2cn(CCN3CCC3)c([C@H]3CCN(c4ncnc(N)c4C(C)C)C[C@H]3F)n2)ccc1F (single isomer, unassigned)
Data returned: 8.00 to 9.00

Data request: Can you share its pIC50? I mean this molecule: Cc1cc(-c2cn(CCN3CCC3)c([C@H]3CCN(c4ncnc(N)c4C(N)=O)C[C@H]3F)n2)ccc1F (single isomer, unassigned)
Data returned: < 8.00

Data request: Can you share its pIC50? I mean this molecule: CCOc1c(N)ncnc1N1CC[C@H](c2nc(-c3ccc(F)c(C(F)(F)F)c3)cn2CCN2CCC2)[C@H](F)C1 (single isomer, unassigned)
Data returned: 8.00 to 9.00

Continuing:
Data request: Can you share its pIC50? I mean this molecule: NCCn1cc(-c2ccc(F)c(C(F)(F)F)c2)nc1[C@@H]1CCN(c2ncnc(N)c2Cl)C[C@@H]1F (racemic)
Data returned: 8.00 to 9.00

Data request: Can you share its pIC50? I mean this molecule: Cc1cc(-c2cn(CCN3CCC3)c([C@@H]3CCN(c4ncnc(N)c4C(N)=O)C[C@@H]3F)n2)ccc1F (relative stereo) [Compound 19]
Data returned: 8.00 to 9.00

Data request: Can you share its pIC50? I mean this molecule: NC(=O)c1c(N)ncnc1N1CC[C@@H](c2nc(-c3ccc(F)c(C(F)(F)F)c3)cn2CCN2CCC2)[C@@H](F)C1 (single isomer, unassigned) [Compound 3]
Data returned: 8.00 to 9.00

Data request: Can you share its pIC50? I mean this molecule: CC(C)c1c(N)ncnc1N1CC[C@@H](c2nc(-c3ccc(F)c(C(F)(F)F)c3)cn2CCN(C)C)[C@@H](F)C1 (single isomer, unassigned) [Compound 32]
Data returned: 8.00 to 9.00
